Assay: Components of the Cytosolic LPS Sensing Pathway: Gene Identification via Genome-wide siRNA Screen
Conditions: RAW264.7 macrophages, IL-1a HTRF, actives lie on both sides, screened at 100 nM (by protocol), cells primed 5 h with Pam3CSK4 first
Screen size: about 53,000 sequences; about 3,700 (7%) were called active.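 Rule for the calls: active = gene knockdowns whose robust z-score for IL-1 alpha signal is at least 2 or at most -2, so actives lie on both sides; inactive = the rest.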 Shown is part of a subset that was picked to be rich in actives.
Labels: y for active, n for inactive

biosequence: GCUUCGAUACCUUCAAACCTT against Stom
classLabel: y

biosequence: GCUAGGUGCUGCUACGAAATT against Tex13c3
classLabel: n

biosequence: CGAAACUGGUCUUUAUACUTT against Tigd4
classLabel: n
